Data origin: paper PMC4242493

molecular target: MaxL homodimer (Homo sapiens, UniProt P61244 1-160); test: universal protein-binding microarray (PBM); PBS-based mixture, 10 nM His-tagged protein dimer, 2% milk, 200 ng/uL BSA, 50 ng/uL salmon testes DNA, 0.02% TX-100; detection with Alexa 488 anti-His antibody;; high values mean tight binding; conditions: protein: recombinant; tags: C-terminal His-tag (pET21a); chain copies: 2; dsDNA, one strand shown;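 further: fluorescence intensity normalized to that of the highest-ranked 8-mer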
Sequence (P61244 whole entry): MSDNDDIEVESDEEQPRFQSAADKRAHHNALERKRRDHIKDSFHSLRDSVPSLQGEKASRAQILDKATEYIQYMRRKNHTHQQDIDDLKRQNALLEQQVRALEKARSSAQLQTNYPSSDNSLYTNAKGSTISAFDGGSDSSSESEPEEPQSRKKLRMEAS
The full ranking holds about 33,000 sequences; the median of “normalized occupancy” is about 0.075, and the highest 2% start at about 0.095. The sample as a whole holds a higher share of the highest values than the screen did.
Answer each item with its documented binding signal.
Answers are plain numbers, in normalized occupancy.

As a guide, the following entries are already answered.
ACACCAAG | 0.0798
AATGTGGA | 0.0903
CCATTCTA | 0.0759
GTCCACAA | 0.0768
TGCCAGAA | 0.0775

// for each sequence below, give its binding signal
1. CACATGCA
2. CATGTTGA
3. CATGTCGG

Response line:
1: 0.138; 2: 0.0943; 3: 0.088

// for each sequence below, give its binding signal
1. CAAATGCA
2. ACGTTGAC
3. AATGTGGG

Response line:
[0.0784, 0.0793, 0.0907]

----------
molecular target: MaxL homodimer (Homo sapiens, UniProt P61244 1-160); assay: universal protein-binding microarray (PBM); PBS-based mixture, 10 nM His-tagged protein dimer, 2% milk, 200 ng/uL BSA, 50 ng/uL salmon testes DNA, 0.02% TX-100; detection with Alexa 488 anti-His antibody;; high values mean tight binding; details: protein: recombinant; tags: C-terminal His-tag (pET21a); chain copies: 2; dsDNA, one strand shown;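 further: fluorescence intensity normalized to that of the highest-ranked 8-mer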
Over roughly 33,000 sequences, “normalized occupancy” has its median near 0.075; the highest 2% begin near 0.095. The sample as a whole holds a higher share of the highest values than the screen did.
Rule: binding signal of 0.08 normalized occupancy or more gives 1; anything lower gives -1.

// below: answered sequences
GGCGTTCA | -1
ACCGTGGG | -1
GACGGTCA | -1
CAGCACGC | 1

Prompt line: Does the sequence `GAGACATC` have recorded binding signal that is 0.08 normalized occupancy or more?
Response line: -1

Prompt line: Do the same for `AAAGTGGT` please
Response line: -1

Prompt line: Do the same for `ATGCACGC` please
Response line: 1

Prompt line: Do the same for `CTGCACGC` please
Response line: 1

----------
biological target: MaxL homodimer (Homo sapiens, UniProt P61244 1-160); experiment: universal protein-binding microarray (PBM); PBS-based mixture, 10 nM His-tagged protein dimer, 2% milk, 200 ng/uL BSA, 50 ng/uL salmon testes DNA, 0.02% TX-100; detection with Alexa 488 anti-His antibody;; high values mean tight binding; details: protein: recombinant; tags: C-terminal His-tag (pET21a); chain copies: 2; dsDNA, one strand shown;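 further: fluorescence intensity normalized to that of the highest-ranked 8-mer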
Over roughly 33,000 sequences, “normalized occupancy” has its median near 0.075; the highest 2% begin near 0.095. Only a selection was taken, and the highest values are over-represented in it overall.
recordedEndpoint: binding signal (normalized occupancy)
Numbers only, in normalized occupancy.

ACTAACAA | 0.0766

// for each sequence below, give its binding signal
1. AGATGCCC
2. ATCTGATG
3. ATGTGATC

Response line:
1: 0.0786; 2: 0.0779; 3: 0.0964

// for each sequence below, give its binding signal
1. GATGCGAC
2. ATGTGATA
3. AAACTAAC
4. CATGACGG
5. ATATGCCG

Response line:
1. 0.0759
2. 0.0999
3. 0.0741
4. 0.0797
5. 0.0773

// for each sequence below, give its binding signal
1. CCCACAGC
2. AAAACGTT
3. CATGCGAC

Response line:
1. 0.0741
2. 0.0743
3. 0.109

// for each sequence below, give its binding signal
1. ACATGCCC
2. AGACATTG
3. AAGTATAG
4. ACATGCCT
5. GCTTCTTA
6. CTGTGATC

Response line:
1. 0.099
2. 0.0768
3. 0.0813
4. 0.0828
5. 0.0746
6. 0.0728

// for each sequence below, give its binding signal
1. CAATCGAC
2. CCATGCCC

Response line:
0.0743
0.0935

// for each sequence below, give its binding signal
1. CCATGCCA
2. ACTCATGC
3. ACTCATGG
4. CCGCTTAC
5. ATGTGAAT
6. TATGCTCA
7. CATGCTCC
8. AAAACGTA

Response line:
1: 0.0875; 2: 0.0969; 3: 0.0945; 4: 0.0724; 5: 0.0967; 6: 0.0848; 7: 0.105; 8: 0.0744

// for each sequence below, give its binding signal
1. TCTTGTAA
2. CGTGCTCC
3. AAAACGTG
4. AATGCGAG
5. TAGTTGGA
6. ACGCCGCT
7. AATGCGAC
8. ACACATTA

Response line:
1. 0.0718
2. 0.085
3. 0.122
4. 0.0746
5. 0.0742
6. 0.0763
7. 0.0782
8. 0.0926

// for each sequence below, give its binding signal
1. ACATGCCG
2. ATGTGAAG
3. CCATGCCG
4. ACGCCTCC
5. CAAACGTG
6. AGTCATGC

Response line:
1. 0.103
2. 0.0891
3. 0.1
4. 0.0771
5. 0.103
6. 0.096
